Molecular target: UniProtKB Q9H422
Test: Kinase panel (mobility shift)
Type: biochemical
Below, each of the compounds is paired with its reported inhibition at 5 µM value.

Example cases with answers are listed next.
smilesInput: CSc1nc(C(=O)Nc2ccc(Oc3ccnc(C(=O)NC4COC4)c3)c(F)c2)c(-c2ccc(F)c(F)c2)o1
assayTarget: UniProtKB Q9H422
property: inhibition at 5 µM
result: < 50%

smilesInput: CSc1nc(C(=O)Nc2ccc(Oc3ccnc(C(=O)NC4COC4)c3)c(F)c2)c(-c2ccc(F)cc2)o1
assayTarget: UniProtKB Q9H422
property: inhibition at 5 µM
result: < 50%

smilesInput: CSc1nc(C(=O)Nc2ccc(Oc3ccnc(C(=O)NC4CCN(C)CC4)c3)c(F)c2)c(-c2ccc(F)cc2)o1
assayTarget: UniProtKB Q9H422
property: inhibition at 5 µM
result: 50 to 79%

smilesInput: CNC(=O)c1cc(Oc2ccc(NC(=O)c3nc(OC)oc3-c3ccc(F)s3)cc2F)ccn1
assayTarget: UniProtKB Q9H422
property: inhibition at 5 µM
result: < 50%

Please look at the following compound next.
Input COc1nc(C(=O)Nc2ccc(Oc3ccnc(C(=O)NC4COC4)c3)c(F)c2)c(-c2ccc(F)cc2)o1 . Output inhibition at 5 µM: < 50%

* * *

In this section, each of the compounds is paired with its reported inhibition at 5 µM.
Molecular target: HIPK3 (Homo sapiens)
Sequence (Q9H422 whole entry, species assumed): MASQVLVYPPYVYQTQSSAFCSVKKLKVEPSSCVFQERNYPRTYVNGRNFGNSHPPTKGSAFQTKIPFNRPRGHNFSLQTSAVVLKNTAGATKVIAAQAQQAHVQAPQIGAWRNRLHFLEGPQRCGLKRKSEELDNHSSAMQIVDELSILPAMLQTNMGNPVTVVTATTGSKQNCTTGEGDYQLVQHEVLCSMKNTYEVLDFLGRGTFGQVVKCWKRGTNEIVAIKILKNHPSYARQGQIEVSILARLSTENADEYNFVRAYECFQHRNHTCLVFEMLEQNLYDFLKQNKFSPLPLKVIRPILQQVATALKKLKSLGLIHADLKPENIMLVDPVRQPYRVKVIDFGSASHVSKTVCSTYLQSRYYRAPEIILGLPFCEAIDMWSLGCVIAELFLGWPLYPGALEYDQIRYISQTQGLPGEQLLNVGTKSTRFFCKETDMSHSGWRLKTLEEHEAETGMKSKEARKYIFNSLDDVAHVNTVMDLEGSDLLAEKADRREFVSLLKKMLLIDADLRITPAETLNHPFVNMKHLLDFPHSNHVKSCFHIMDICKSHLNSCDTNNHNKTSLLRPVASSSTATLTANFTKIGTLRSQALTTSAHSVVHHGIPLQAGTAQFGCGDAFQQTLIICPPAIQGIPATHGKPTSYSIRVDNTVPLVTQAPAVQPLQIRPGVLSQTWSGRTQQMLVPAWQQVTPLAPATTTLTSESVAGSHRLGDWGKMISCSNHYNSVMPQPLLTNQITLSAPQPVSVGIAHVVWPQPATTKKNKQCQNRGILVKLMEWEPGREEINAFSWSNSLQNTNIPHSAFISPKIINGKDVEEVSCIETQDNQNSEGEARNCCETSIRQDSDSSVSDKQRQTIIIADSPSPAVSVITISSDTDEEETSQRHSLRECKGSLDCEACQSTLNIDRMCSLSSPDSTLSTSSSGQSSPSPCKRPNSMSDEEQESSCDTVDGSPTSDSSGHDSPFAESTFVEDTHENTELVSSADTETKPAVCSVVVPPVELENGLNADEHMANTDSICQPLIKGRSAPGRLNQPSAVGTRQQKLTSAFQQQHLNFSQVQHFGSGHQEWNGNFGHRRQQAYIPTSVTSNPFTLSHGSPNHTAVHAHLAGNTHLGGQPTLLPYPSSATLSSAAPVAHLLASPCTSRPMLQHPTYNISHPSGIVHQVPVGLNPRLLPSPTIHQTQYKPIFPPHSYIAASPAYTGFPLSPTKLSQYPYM
Experiment: Kinase panel (mobility shift)
Type: biochemical

smilesInput: CNC(=O)c1cc(Oc2ccc(NC(=O)c3nc(OC4CC4)oc3-c3ccc(F)cc3)cc2F)ccn1
inhibition at 5 µM: 50 to 79%

Item: CNC(=O)c1cc(Oc2ccc(NC(=O)c3nc(SC)oc3-c3ccc(F)c(F)c3)cc2)ccn1 | inhibition at 5 µM: 50 to 79%

Query CNC(=O)c1cc(Oc2ccc(NC(=O)c3nc(SC)oc3-c3ccc(F)cc3Cl)cc2)ccn1 yields inhibition at 5 µM of < 50%

Summary for this compound, CNC(=O)c1ccc(Oc2ccc(NC(=O)c3nc(Cl)oc3-c3ccc(F)cc3)c(F)c2)cn1 : inhibition at 5 µM is 50 to 79%

Query CNC(=O)c1cc(Oc2ccc(NC(=O)c3nc(NC)sc3-c3ccc(F)cc3C)cc2F)ccn1 yields inhibition at 5 µM of < 50%

What the record says about CNC(=O)c1cc(Oc2ccc(NC(=O)c3nc(NC)sc3-c3ccc(F)cc3F)cc2F)ccn1 : inhibition at 5 µM is 50 to 79%

Data point: CNC(=O)c1cc(Oc2ccc(NC(=O)c3nc(NC)oc3-c3ccc(F)s3)cc2F)ccn1 ; inhibition at 5 µM = < 50%

* * *

Molecular target: BRK (Homo sapiens, UniProt Q13882)
Sequence (Q13882 whole entry, species assumed): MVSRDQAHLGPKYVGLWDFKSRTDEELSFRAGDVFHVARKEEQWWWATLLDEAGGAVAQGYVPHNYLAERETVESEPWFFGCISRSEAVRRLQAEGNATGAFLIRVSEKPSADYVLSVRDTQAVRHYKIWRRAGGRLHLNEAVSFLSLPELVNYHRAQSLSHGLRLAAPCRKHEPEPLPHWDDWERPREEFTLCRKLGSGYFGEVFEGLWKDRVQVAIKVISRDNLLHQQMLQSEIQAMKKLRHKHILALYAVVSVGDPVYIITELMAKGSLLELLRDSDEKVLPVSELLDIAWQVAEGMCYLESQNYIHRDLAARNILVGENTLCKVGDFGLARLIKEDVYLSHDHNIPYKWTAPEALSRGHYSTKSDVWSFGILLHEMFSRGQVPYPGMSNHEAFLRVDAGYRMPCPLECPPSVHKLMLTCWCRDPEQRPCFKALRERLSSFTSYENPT
Test: Kinase panel (mobility shift)
Format: biochemical
property: inhibition at 5 µM

Some compounds with recorded inhibition at 5 µM:
compound: CNC(=O)c1cc(Oc2ccc(NC(=O)c3nc(SC)oc3-c3ccc(F)cc3F)cc2)ccn1 [Compound 6]
assayTarget: BRK (Homo sapiens, UniProt Q13882)
inhibition at 5 µM: ≥ 95%

compound: COc1nc(C(=O)Nc2ccc(Oc3ccnc(C(=O)NCC(F)(F)F)c3)c(F)c2)c(-c2ccc(F)cc2)o1 [Compound 43]
assayTarget: BRK (Homo sapiens, UniProt Q13882)
inhibition at 5 µM: < 50%

compound: [2H]C([2H])([2H])NC(=O)c1cc(Oc2ccc(NC(=O)c3nc(SC)oc3-c3ccc(F)s3)cc2F)ccn1 [Compound 35]
assayTarget: BRK (Homo sapiens, UniProt Q13882)
inhibition at 5 µM: < 50%

compound: CNC(=O)c1cc(Oc2ccc(NC(=O)c3nc(OC)oc3-c3ccc(F)cc3)cc2F)ccn1 [Compound 15]
assayTarget: BRK (Homo sapiens, UniProt Q13882)
inhibition at 5 µM: 50 to 79%

For reference, reported inhibition at 5 µM for CSc1nc(C(=O)Nc2ccc(Oc3ccnc(C(=O)NCC(F)(F)F)c3)c(F)c2)c(-c2ccc(F)cc2)o1 [Compound 40] stands at 50 to 79%

* * *

Target: TIE2 (Homo sapiens)
Sequence (Q02763 23-1124, species assumed): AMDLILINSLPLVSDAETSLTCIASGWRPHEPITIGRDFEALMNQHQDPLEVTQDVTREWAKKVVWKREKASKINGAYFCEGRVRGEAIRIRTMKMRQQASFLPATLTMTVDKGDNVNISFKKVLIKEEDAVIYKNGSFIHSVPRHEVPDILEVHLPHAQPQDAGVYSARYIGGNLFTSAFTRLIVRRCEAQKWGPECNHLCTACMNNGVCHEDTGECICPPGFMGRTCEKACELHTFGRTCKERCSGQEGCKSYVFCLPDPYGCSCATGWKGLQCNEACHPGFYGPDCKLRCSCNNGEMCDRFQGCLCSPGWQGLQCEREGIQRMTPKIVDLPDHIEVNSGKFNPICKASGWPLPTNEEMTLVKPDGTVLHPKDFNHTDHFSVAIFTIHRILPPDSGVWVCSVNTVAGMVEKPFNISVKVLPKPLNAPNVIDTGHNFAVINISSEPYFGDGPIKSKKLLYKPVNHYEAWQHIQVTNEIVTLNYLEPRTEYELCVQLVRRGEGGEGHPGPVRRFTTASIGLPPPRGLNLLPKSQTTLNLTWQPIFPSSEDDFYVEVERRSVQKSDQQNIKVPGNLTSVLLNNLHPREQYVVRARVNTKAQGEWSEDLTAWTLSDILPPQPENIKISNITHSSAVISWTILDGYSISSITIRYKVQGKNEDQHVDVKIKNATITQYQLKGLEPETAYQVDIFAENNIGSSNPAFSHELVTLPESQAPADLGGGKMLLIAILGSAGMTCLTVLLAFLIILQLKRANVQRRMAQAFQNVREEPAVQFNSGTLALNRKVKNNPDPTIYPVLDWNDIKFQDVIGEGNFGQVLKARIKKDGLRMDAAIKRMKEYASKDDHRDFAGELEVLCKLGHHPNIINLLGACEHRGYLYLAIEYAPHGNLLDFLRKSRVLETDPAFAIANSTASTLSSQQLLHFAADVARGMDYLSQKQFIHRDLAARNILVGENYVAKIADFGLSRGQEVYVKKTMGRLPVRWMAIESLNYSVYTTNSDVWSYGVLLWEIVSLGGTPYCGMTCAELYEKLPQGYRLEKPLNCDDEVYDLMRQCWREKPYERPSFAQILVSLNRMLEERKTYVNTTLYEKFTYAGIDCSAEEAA
Test: Kinase panel (mobility shift)
Assay type: biochemical
inhibition at 5 µM overview

smilesInput: [2H]C([2H])([2H])NC(=O)c1cc(Oc2ccc(NC(=O)c3nc(SC)oc3-c3ccc(F)c(F)c3)cc2F)ccn1
property: inhibition at 5 µM
result: < 50%

Here's the next entry for you.
The value of inhibition at 5 µM measured for the molecule CSc1nc(C(=O)Nc2ccc(Oc3ccnc(C(=O)NC4CNC4)c3)c(F)c2)c(-c2ccc(F)cc2)o1 turned out to be < 50%

* * *

compounds and their reported inhibition at 5 µM
Target: EPH-A8 (Homo sapiens)
Sequence (P29322 28-1005, species assumed): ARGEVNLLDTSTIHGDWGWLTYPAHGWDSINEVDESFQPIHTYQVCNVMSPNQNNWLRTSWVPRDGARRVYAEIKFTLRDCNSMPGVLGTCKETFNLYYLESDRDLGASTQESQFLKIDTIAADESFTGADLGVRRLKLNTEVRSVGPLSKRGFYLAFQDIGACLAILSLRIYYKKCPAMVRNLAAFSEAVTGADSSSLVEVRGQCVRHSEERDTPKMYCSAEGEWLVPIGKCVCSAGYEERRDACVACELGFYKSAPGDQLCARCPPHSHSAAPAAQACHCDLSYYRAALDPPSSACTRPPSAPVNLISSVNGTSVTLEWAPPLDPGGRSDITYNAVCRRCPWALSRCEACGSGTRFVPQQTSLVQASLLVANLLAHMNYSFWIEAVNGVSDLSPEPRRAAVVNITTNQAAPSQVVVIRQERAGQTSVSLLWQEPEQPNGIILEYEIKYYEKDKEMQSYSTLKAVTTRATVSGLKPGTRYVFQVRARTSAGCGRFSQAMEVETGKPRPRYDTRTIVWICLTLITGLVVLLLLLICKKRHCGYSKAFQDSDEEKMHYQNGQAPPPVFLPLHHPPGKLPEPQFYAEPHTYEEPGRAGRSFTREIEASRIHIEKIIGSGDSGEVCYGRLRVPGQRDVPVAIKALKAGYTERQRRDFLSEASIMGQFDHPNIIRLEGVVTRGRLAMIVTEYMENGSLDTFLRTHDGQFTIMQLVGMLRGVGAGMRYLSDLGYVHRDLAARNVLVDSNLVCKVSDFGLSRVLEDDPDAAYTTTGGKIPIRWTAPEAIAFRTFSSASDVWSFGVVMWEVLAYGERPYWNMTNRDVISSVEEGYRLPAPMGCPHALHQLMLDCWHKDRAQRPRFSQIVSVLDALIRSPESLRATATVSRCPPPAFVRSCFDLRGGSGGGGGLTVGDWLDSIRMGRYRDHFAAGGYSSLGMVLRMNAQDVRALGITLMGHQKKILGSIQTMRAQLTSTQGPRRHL
Test: Kinase panel (mobility shift)
Type: biochemical

Sample records with inhibition at 5 µM:
smilesInput: CNC(=O)c1cc(Oc2ccc(NC(=O)c3nc(NC)sc3-c3ccc(F)cc3F)cc2F)ccn1
result: 50 to 79%
//
smilesInput: COc1nc(C(=O)Nc2ccc(Oc3ccnc(C(=O)NCC(F)(F)F)c3)c(F)c2)c(-c2ccc(F)cc2)o1
result: < 50%
//
smilesInput: CSc1nc(C(=O)Nc2ccc(Oc3ccnc(C(=O)NC4COC4)c3)c(F)c2)c(-c2ccc(F)c(F)c2)o1
result: < 50%
//
smilesInput: CNC(=O)c1cc(Oc2ccc(NC(=O)c3nc(S(C)(=O)=O)sc3-c3ccc(F)cc3)cc2F)ccn1
result: 80 to 89%
//
smilesInput: CSc1nc(C(=O)Nc2ccc(Oc3cc4cnn(C)c4cc3Br)c(F)c2)c(-c2ccc(F)cc2)o1
result: 50 to 79%
//
smilesInput: CNC(=O)c1cc(Oc2ccc(NC(=O)c3nc(SC)oc3-c3ccc(OC)cc3)cc2)ccn1
result: < 50%
//
smilesInput: CNC(=O)c1cc(Oc2ccc(NC(=O)c3nc(OCC(F)(F)F)oc3-c3ccc(F)cc3)cc2F)ccn1
result: 50 to 79%
//
smilesInput: CSc1nc(C(=O)Nc2ccc(Oc3ccnc(C(=O)NCC(F)(F)F)c3)c(F)c2)c(-c2ccc(F)cc2)o1
result: < 50%
//
smilesInput: CNC(=O)c1cc(Oc2ccc(NC(=O)c3nc(NC)oc3-c3ccc(F)s3)cc2F)ccn1
result: < 50%
//
smilesInput: CNC(=O)c1cc(Oc2ccc(NC(=O)c3nc(NC)sc3-c3ccc(F)cc3C)cc2F)ccn1
result: 50 to 79%

get_value(item= CNC(=O)c1cc(Oc2ccc(NC(=O)c3nc(OC)oc3-c3ccc(F)cc3)cc2F)ccn1 , readout=inhibition at 5 µM) returns 80 to 89%

* * *

Molecular target: HIPK3 (Homo sapiens)
Assay: Kinase panel (mobility shift)
Assay type: biochemical
Listing of recorded inhibition at 5 µM by entry.

Use the examples below as a reference point.
smilesInput: CNC(=O)c1cc(Oc2ccc(NC(=O)c3nc(SC)oc3-c3ccc(OC)cc3)cc2)ccn1
inhibition at 5 µM: < 50%

smilesInput: CSc1nc(C(=O)Nc2ccc(Oc3cc4cnn(C)c4cc3Br)c(F)c2)c(-c2ccc(F)cc2)o1
inhibition at 5 µM: < 50%

smilesInput: CSc1nc(C(=O)Nc2ccc(Oc3ccnc(C(=O)NCCN(C)C)c3)c(F)c2)c(-c2ccc(F)cc2)o1
inhibition at 5 µM: < 50%

smilesInput: CSc1nc(C(=O)Nc2ccc(Oc3ccnc(C(=O)NC4COC4)c3)c(F)c2)c(-c2ccc(F)s2)o1
inhibition at 5 µM: < 50%

smilesInput: CSc1nc(C(=O)Nc2ccc(Oc3ccnc(C(=O)NC4CNC4)c3)c(F)c2)c(-c2ccc(F)s2)o1
inhibition at 5 µM: < 50%

Next item in the queue.
The reported value for CNC(=O)c1cc(Oc2ccc(NC(=O)c3nc(OCC(F)(F)F)oc3-c3ccc(F)cc3)cc2F)ccn1 in terms of inhibition at 5 µM is 50 to 79%

* * *

Molecular target: TIE2 (Homo sapiens)
Assay: Kinase panel (mobility shift)
Type: biochemical
property: inhibition at 5 µM

// known answers, use as guide
smilesInput: COc1nc(C(=O)Nc2ccc(Oc3ccnc(C(=O)NC4COC4)c3)c(F)c2)c(-c2ccc(F)cc2)o1
property: inhibition at 5 µM
result: < 50%

smilesInput: CSc1nc(C(=O)Nc2ccc(Oc3ccnc(C(=O)NC4CCN(C)CC4)c3)c(F)c2)c(-c2ccc(F)cc2)o1
property: inhibition at 5 µM
result: < 50%

smilesInput: CNC(=O)c1cc(Oc2ccc(NC(=O)c3nc(NC)sc3-c3ccc(F)cc3C)cc2F)ccn1
property: inhibition at 5 µM
result: 50 to 79%

Pending compound:
Measured inhibition at 5 µM, CNC(=O)c1cc(Oc2ccc(NC(=O)c3nc(OC4CC4)oc3-c3ccc(F)cc3)cc2F)ccn1 : 50 to 79%

* * *

Target: TIE2 (Homo sapiens)
Assay: Kinase panel (mobility shift)
Type: biochemical
Description: The disclosed compounds were tested for activity against a panel of 299 kinases. The target enzyme was incubated with fluorescently labeled substrate and test compounds in a standardized reaction mixture in 384 well plates. Upon termination of the reaction, samples were introduced onto microfluidic chips. […] Enzyme activity was measured by direct comparison of the fluorescence in the product and substrate peaks. […]
Catalogue of inhibition at 5 µM values

For CSc1nc(C(=O)Nc2ccc(Oc3ccnc(C(=O)NC4CNC4)c3)c(F)c2)c(-c2ccc(F)s2)o1 the compound record lists inhibition at 5 µM as < 50%

Kindly note the recorded inhibition at 5 µM for CNC(=O)c1cc(Oc2ccc(NC(=O)c3nc(NC)oc3-c3ccc(F)s3)cc2F)ccn1 , which is < 50%

Data point: CSc1nc(C(=O)Nc2ccc(Oc3ccnc(C(=O)NC4COC4)c3)c(F)c2)c(-c2ccc(F)c(F)c2)o1 ; inhibition at 5 µM = < 50%

Form: compound = CNC(=O)c1ccc(Oc2ccc(NC(=O)c3nc(Cl)oc3-c3ccc(F)cc3)c(F)c2)cn1 ; inhibition at 5 µM = < 50%
